tested on: GD4K-βNA; test: EP activity and kinetic study with specific substrate GD4K-βNA; assay type: biochemical; settings: substrate GD4K-βna
Where Km equals or exceeds 400 µM, the correct label is MET; where it does not, the label is NOT MET.

- molecule: "Bovine (Neb): bovine EP protease available from NEB (protein) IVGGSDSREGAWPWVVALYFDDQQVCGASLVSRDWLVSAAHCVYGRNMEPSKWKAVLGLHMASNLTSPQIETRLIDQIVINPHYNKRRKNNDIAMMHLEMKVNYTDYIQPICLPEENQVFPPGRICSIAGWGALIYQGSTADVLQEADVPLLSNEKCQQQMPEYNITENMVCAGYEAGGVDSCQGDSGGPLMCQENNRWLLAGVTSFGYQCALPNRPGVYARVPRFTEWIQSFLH"
  class assignment: "MET"
- molecule: "K63R: Medaka EP-1 protease mutant, substitution K63R (protein) CGQRQVYNSKENNGVPRVVGGVNAEKGAWPWMVSLHWRGRHGCGASLIGRDWLLTAAHCVYGRNTHLQYWSAVLGLHAQSSMNSQEVQIRQVDRIIINKNYNRRTKEADIAMMHLQQPVNFTEWVLPVCLASEDQHFPAGRRCFIAGWGRDAEGGSLPDILQEAEVPLVDQDECQRLLPEYTFTSSMLCAGYPEGGVDSCQGDSGGPLMCLEDARWTLIGVTSFGVGCGRPERPGAYARVSAFTSWIAETRRSSFSDLD"
  class assignment: "NOT MET"
- molecule: "E173A: EP-1 with E173A mutation, SEQ ID NO: 4 (protein, Oryzias latipes) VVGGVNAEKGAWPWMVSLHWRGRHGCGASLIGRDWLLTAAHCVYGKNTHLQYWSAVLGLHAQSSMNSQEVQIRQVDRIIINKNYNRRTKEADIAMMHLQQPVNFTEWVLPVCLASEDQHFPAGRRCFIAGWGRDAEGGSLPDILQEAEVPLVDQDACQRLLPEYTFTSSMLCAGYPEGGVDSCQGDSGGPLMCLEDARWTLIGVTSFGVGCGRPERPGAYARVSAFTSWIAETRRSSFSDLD"
  class assignment: "NOT MET"
- molecule: "EP-1: recombinant serine protease domain of Medaka (Oryzias latipes) enteropeptidase-1, wild type, SEQ ID NO: 2 (protein, Oryzias latipes) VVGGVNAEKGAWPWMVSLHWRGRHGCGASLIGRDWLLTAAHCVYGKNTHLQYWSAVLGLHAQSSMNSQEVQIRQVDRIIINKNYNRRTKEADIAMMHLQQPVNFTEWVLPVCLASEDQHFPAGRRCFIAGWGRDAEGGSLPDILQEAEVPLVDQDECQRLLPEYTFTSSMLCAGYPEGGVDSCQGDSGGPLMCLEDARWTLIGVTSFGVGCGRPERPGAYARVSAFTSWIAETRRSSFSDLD"
  class assignment: "MET"
